Field: melting point. Provide a value for each of the compounds that follow.

Query (compound): Cc1ccc(C(=O)NCc2ccc(CNS(=O)(=O)c3ccc(C)cc3)cc2)cc1 ; field requested: melting point 180 to 182 °C

Can you share its melting point? I mean this compound: Cc1ccc(S(=O)(=O)NCc2ccc(CNC(=O)c3cccc(C)c3)cc2)cc1 123 to 125 °C

Entry Cc1ccc(C(=O)NCc2ccc(CNS(=O)(=O)c3ccccc3)cc2)cc1 has what melting point? 188 to 190 °C

Consider the compound O=C(NCc1ccc(CNS(=O)(=O)c2ccc3c(c2)CCO3)cc1)c1cccc2c1COC2 and give its measured melting point. 149 to 151 °C

So what does the record say about melting point for COc1cccc(C(=O)NCc2ccc(CNS(=O)(=O)c3ccc(C)cc3)cc2)c1 ? 130 to 132 °C

# get_value(readout='melting point', item= Cc1ccc(S(=O)(=O)NCc2ccc(CNC(=O)c3ccccc3F)cc2)cc1 ) 138 to 140 °C

Quick one: melting point of Cc1ccc(S(=O)(=O)NCc2ccc(CNC(=O)c3cccnc3)cc2)cc1 ? 120 to 122 °C

melting point lookup needed for O=C(NCc1ccc(CNS(=O)(=O)c2ccc3c(c2)CCO3)cc1)c1cccnc1 , thanks. 137 to 139 °C

Given O=C(NCc1ccc(CNS(=O)(=O)c2cccc(F)c2)cc1)c1cc2ccccn2n1 , state its recorded melting point. 163 to 165 °C

====

Exercise: for every item that follows, state its recorded melting point.

What value of measured melting point is listed for Cn1nccc1C(=O)NCc1ccc(CNS(=O)(=O)c2ccc3c(c2)CCO3)cc1 [Ic] ? 143 to 145 °C

Request the reported melting point associated with Cc1ccc(S(=O)(=O)NCc2ccc(CNC(=O)c3ccccc3)cc2)cc1 [IIa] 162 to 164 °C

Entry Cc1cccc(C(=O)NCc2ccc(CNS(=O)(=O)c3ccccc3)cc2)c1 [IIIc] : reported melting point = ? 112 to 114 °C

Sample Cc1ccc(S(=O)(=O)NCc2ccc(CNC(=O)c3ccncc3)cc2)cc1 [IIr] — what was its melting point? 163 to 165 °C

// lookup melting point for Cc1ccc(S(=O)(=O)NCc2ccc(CNC(=O)c3cccc(F)c3)cc2)cc1 [IIi] 137 to 139 °C

# input compound: O=C(NCc1ccc(CNS(=O)(=O)c2ccccc2)cc1)c1ccccc1F [IIIh] ; wanted: its melting point 122 to 124 °C

Query (compound): COc1cccc(C(=O)NCc2ccc(CNS(=O)(=O)c3ccccc3)cc2)c1 [IIIf] ; field requested: melting point 120 to 122 °C

Any idea what its melting point is? The compound is O=C(NCc1ccc(CNS(=O)(=O)c2ccc(F)cc2F)cc1)c1ncc[nH]1 [Ie] 225 to 227 °C

For the compound COc1ccc(C(=O)NCc2ccc(CNS(=O)(=O)c3ccc(C)cc3)cc2)cc1 [IIg] , what melting point is on record? 147 to 149 °C

====

Provide the reported melting point of each item.

# input compound: O=C(NCc1ccc(CNS(=O)(=O)c2ccccc2)cc1)c1ccc(Cl)cc1 [IIIn] ; wanted: its melting point 182 to 184 °C

Look up melting point for this compound: COc1ccccc1C(=O)NCc1ccc(CNS(=O)(=O)c2ccc(C)cc2)cc1 [IIe] 154 to 156 °C

Quick one: melting point of Cc1ccccc1C(=O)NCc1ccc(CNS(=O)(=O)c2ccccc2)cc1 [IIIb] ? 129 to 131 °C

For O=C(NCc1ccc(CNS(=O)(=O)c2ccccc2)cc1)c1cccc(Cl)c1 [IIIm] , what is its reported melting point? 114 to 116 °C

Reported melting point for O=C(NCc1ccc(CNS(=O)(=O)c2ccccc2)cc1)c1c(Cl)cc(Cl)cc1Cl [IIIp] : what is it? 158 to 160 °C

Requested field: melting point. Item: Cc1ccc(S(=O)(=O)NCc2ccc(CNC(=O)c3ccc([N+](=O)[O-])cc3)cc2)cc1 [IIo] 207 to 209 °C

Find the recorded melting point belonging to Cc1cc(C(=O)NCc2ccc(CNS(=O)(=O)c3ccc4c(c3)CCO4)cc2)n(C)n1 [If] and report it. 176 to 178 °C

// melting point lookup, key: O=C(NCc1ccc(CNS(=O)(=O)c2ccc3c(c2)CCO3)cc1)c1cc2ccccn2n1 [Ib] 180 to 182 °C

I have this compound here, O=C(NCc1ccc(CNS(=O)(=O)c2ccc(F)c(F)c2)cc1)c1cnc2ccccn12 [Ii] , and I need its recorded melting point. 192 to 194 °C

Value source: patent US10669270B2
